# Experimental protocol: COS7 lysate on small-molecule microarray, probe aHis, 635 nm (AID 1123);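 further: z-score combines 667nm fluorescence intensity with signal-to-noise per printed compound spot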
# Applied conditions: COS7 cell lysate, fluorescence, higher = more signal
Reported property: composite z-score

compound="Cc1cc(C)c(C(O)C2C=CC3C(=O)N(C)C(=O)C3N2N2CCCCC2)c(C)c1 (stereo not drawn)" value_measured=1.81
compound=CC/C=C/C(=O)N(C[C@@H]1CCCO1)[C@@H]1CC(C(=O)NCCO)=C[C@H](Oc2c(I)cc(CO)cc2OC)[C@H]1O value_measured=1.42
compound=CO[C@H]1COC(=O)CC=C[C@H](C)[C@@H](OC)COC(=O)CC=C[C@@H]1C value_measured=-0.702
compound=COC(=O)[C@@]1(Cc2ccc(OC)cc2)[C@H]2c3cc(C(=O)N(C)C)n(CCc4ccc(OC)c(Br)c4)c3C[C@H]2CN1C(=O)c1ccccc1 value_measured=2.9
compound=COc1ccc([Si](C)(C)[C@H]2[C@H](CC(=O)N(CCO)Cc3ccccc3)O[C@@]3(C(=O)N(C)c4ccccc43)[C@@H]2C)cc1 value_measured=0.136
compound="CC[C@H]1C2=C3C(CC[C@H]4C(OC)OC[C@](C)([C@@H]34)N(C(=O)OC(C)(C)C)C2)C(CO)C1CO (stereo partly drawn)" value_measured=3.15
compound=Cc1ccc(N2C(=O)c3ccccc3[C@@H](C(=O)NCC(F)(F)F)[C@@H]2c2ccc(CO)cc2)nc1 value_measured=-0.786
compound="Cc1ccccc1C(O)C1C=CC2C(=O)N(c3ccccc3)C(=O)C2N1Nc1ccc(C#N)cc1 (stereo not drawn)" value_measured=2.87

Values from PubChem BioAssay
